protocol: recombinant UMI read abundance after kanamycin selection (control-corrected) (log10(CPM+1)); higher = more efficient recombination; extreme values may be limits of the assay; sequences stand for … in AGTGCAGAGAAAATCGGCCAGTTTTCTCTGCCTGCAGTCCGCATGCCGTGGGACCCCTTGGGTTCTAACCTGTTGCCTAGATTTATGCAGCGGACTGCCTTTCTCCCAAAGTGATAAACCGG…AGGTTGGTTTCACT; site = the 11-nt donor;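 also: IS621 bridge recombinase in Escherichia coli cells against a fixed T5 target plasmid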
recombinant UMI read abundance (log10) of 1 or higher: T. Under 1: F.

Check out these entries, answers already filled in.
Does the reported recombinant UMI read abundance (log10) for CCCATGTCATGGACCGGTTTTCCCGGTAATCCGTATTTGTC (site CCCATGTCTGA) fall at or above the 1 mark?
T

Assess whether reported recombinant UMI read abundance (log10) for AGTAAGACATGGACCGGTTTTCCCGGTAATCCGTATTTGCA (site AGAAAGACTTG) sits at 1 or higher.
T

Reported recombinant UMI read abundance (log10) at or above 1? GAGTGGACATGGACCGGTTTTCCCGGTAATCCGTATTTGAC (site GAATGGACTGT)
T

API: above_or_equal(metric=recombinant UMI read abundance (log10), cutoff=1) for item CTACTACCATGGACCGGTTTTCCCGGTAATCCGTATTTGGA (site CTACTATCTTC)
T

Here is another sequence to look at.
Quick check, recombinant UMI read abundance (log10) >= 1? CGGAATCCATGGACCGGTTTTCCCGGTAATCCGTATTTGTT (site CGGAACGCTAA)
F

The origin of these recorded values is the supplement of paper PMC11208160.
